target: AR / CBP ternary complex (Homo sapiens, UniProt P10275+Q92793)
Sequence (P10275 whole entry): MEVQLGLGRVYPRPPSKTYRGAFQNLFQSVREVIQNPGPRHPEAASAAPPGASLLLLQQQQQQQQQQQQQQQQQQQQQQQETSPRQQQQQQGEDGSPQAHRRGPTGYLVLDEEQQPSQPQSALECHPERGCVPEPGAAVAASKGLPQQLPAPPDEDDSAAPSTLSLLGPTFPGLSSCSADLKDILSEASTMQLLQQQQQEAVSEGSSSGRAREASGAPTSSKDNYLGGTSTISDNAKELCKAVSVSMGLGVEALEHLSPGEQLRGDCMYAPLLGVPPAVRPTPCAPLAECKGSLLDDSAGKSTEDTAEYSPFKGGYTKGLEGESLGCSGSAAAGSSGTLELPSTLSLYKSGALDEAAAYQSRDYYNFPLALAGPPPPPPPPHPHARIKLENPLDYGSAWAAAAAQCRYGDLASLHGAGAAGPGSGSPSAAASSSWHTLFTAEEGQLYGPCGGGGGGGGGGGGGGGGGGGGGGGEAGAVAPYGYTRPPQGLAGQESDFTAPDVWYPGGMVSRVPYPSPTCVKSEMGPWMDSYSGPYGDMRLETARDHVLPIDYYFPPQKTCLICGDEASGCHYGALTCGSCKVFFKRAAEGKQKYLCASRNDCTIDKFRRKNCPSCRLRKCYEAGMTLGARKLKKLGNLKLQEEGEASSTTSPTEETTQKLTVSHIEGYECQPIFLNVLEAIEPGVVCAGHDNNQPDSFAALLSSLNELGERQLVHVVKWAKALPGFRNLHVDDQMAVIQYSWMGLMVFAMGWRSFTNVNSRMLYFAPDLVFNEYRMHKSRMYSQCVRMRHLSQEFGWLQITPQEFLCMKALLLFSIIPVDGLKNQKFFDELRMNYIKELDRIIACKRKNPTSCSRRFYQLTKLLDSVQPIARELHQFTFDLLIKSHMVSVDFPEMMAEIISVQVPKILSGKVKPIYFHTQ
Sequence (Q92793 2-2442): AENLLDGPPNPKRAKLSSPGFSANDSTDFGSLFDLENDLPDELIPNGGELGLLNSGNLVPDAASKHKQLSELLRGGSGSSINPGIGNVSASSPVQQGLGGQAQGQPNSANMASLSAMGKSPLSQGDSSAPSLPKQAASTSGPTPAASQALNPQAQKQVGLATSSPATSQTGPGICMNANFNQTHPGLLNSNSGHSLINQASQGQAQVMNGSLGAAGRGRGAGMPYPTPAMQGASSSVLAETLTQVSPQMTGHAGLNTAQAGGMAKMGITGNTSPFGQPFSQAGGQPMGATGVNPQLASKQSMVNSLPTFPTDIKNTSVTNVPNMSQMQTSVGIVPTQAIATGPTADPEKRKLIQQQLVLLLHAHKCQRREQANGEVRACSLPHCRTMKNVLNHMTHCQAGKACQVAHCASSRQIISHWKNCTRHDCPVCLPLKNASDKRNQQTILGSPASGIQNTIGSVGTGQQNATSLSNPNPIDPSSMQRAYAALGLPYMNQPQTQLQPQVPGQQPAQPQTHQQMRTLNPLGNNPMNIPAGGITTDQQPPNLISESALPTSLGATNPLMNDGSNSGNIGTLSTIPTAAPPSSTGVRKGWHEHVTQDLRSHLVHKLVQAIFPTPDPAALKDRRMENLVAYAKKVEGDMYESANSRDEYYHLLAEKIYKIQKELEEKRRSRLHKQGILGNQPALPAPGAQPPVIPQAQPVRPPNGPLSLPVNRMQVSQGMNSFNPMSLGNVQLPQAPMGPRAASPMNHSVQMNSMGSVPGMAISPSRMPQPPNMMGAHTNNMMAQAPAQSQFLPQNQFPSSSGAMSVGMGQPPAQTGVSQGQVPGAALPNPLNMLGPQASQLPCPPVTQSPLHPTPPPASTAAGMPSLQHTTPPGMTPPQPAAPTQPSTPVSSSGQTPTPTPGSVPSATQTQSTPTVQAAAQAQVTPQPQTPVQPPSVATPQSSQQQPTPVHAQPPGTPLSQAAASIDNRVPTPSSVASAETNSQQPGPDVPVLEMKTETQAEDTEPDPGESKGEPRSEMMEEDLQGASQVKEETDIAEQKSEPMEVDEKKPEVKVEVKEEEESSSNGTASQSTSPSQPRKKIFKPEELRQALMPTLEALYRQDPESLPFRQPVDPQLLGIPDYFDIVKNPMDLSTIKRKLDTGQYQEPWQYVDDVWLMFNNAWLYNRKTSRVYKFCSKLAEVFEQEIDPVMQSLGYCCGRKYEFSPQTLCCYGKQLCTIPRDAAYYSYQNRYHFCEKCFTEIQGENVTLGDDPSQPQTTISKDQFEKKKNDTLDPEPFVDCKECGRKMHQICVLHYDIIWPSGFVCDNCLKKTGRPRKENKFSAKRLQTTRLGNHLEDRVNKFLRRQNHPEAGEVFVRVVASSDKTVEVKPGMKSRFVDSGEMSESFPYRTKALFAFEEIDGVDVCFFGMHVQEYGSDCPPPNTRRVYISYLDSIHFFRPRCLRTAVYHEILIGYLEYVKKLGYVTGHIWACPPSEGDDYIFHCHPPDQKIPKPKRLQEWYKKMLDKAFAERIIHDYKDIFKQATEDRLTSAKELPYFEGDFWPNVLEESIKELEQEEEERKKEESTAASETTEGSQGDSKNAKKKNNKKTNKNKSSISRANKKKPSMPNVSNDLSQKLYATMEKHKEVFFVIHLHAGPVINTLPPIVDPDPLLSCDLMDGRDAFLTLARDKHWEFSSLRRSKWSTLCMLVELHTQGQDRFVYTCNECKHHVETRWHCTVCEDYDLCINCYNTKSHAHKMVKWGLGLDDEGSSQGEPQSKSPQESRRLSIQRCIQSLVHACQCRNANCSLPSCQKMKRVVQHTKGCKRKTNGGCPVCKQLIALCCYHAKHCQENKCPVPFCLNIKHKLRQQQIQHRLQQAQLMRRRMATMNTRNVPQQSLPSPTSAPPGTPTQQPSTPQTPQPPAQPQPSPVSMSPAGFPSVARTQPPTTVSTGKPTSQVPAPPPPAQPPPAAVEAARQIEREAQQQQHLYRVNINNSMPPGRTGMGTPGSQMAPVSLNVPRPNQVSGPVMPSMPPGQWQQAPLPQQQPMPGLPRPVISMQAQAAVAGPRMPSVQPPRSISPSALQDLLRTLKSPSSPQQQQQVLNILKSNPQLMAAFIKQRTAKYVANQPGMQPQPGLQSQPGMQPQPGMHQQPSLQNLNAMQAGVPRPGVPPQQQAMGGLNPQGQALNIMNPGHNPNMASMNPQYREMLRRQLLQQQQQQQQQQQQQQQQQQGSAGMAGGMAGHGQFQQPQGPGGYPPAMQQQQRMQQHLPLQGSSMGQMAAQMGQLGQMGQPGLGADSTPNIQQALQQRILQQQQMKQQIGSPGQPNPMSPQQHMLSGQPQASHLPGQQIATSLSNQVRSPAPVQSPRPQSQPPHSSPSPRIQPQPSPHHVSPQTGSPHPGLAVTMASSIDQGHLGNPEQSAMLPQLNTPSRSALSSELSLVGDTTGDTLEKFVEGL
protocol: Ternary complex formation assay (sandwich ELISA, AR capture, CBP antibody detection) in VCaP cell lysates
Assay type: cell-based
particulars: treated 1.5 hours, rabbit CBP or p300 antibody detection, average, read-out: Average Ternary Complex
test readout: EC50

Example entries and their recorded answers appear below.
compound	EC50
CC(=O)N1CCc2c(c(N3CCCc4cc(-c5cnn(C)c5)c(C(F)F)cc43)nn2C2CCC3(CC2)CN(C2CCN(c4ccc(C(=O)N[C@H]5CC[C@H](Oc6ccc(C#N)c(Cl)c6)CC5)nn4)CC2)C3)C1	< 1 nM
CC(=O)N1CCc2c(c(-c3cccc4cc(-c5ccc(CCC6CCN(c7ccc(C(=O)N[C@H]8CC[C@H](Oc9ccc(C#N)c(Cl)c9)CC8)nn7)CC6)cc5)ncc34)nn2C2CCOCC2)C1	< 1 nM
CC(=O)N1CCc2c(c(N3CCCc4cc(-c5cnn(C)c5)c(C(F)F)cc43)nn2[C@H]2CC[C@]3(CCCN(c4ccc(C(=O)N[C@H]5CC[C@H](Oc6ccc(C#N)c(Cl)c6)CC5)nn4)C3)CC2)C1	> 100 nM
CC(=O)N1CCc2c(c(N3CCCc4cc(-c5cnn(C)c5)c(C(F)F)cc43)nn2C2CCN(C3CCC4(C3)CN(c3ccc(C(=O)N[C@H]5CC[C@H](Oc6ccc(C#N)c(Cl)c6)CC5)nn3)C4)CC2)C1 (stereo partly drawn)	< 1 nM
CC(=O)N1CCc2c(c(-c3cccc4nc(-c5cnn(CCC6CCN(c7ccc(C(=O)N[C@H]8CC[C@H](Oc9ccc(C#N)c(Cl)c9)CC8)nn7)CC6)c5)ncc34)nn2C2CCOCC2)C1	< 1 nM

Recorded EC50 (compound "CC(=O)N1CCc2c(c(-c3cccc4cc(-c5cnn([C@H]6CC[C@H](C7CCN(c8ccc(C(=O)N[C@H]9CC[C@H](Oc%10ccc(C#N)c(Cl)c%10)CC9)nn8)CC7)CC6)c5)ncc34)nn2C2CCOCC2)C1" ): 1 to 10 nM

---

target: AR / CBP ternary complex (Homo sapiens, UniProt P10275+Q92793)
protocol: Ternary complex formation assay (sandwich ELISA, AR capture, CBP antibody detection) in VCaP cell lysates
Type: cell-based
particulars: treated 1.5 hours, rabbit CBP or p300 antibody detection, average, read-out: Average Ternary Complex
pEC50: −log10 of the molar value.
test readout: pEC50

Example entries and their recorded answers appear below.
molecule	target	pEC50
CC(=O)N1CCc2c(c(N3CCCc4cc(-c5cnn(C)c5)c(C(F)F)cc43)nn2C2CCN([C@H]3CCCN(c4ccc(C(=O)N[C@H]5CC[C@H](Oc6ccc(C#N)c(Cl)c6)CC5)nn4)C3)CC2)C1	AR / CBP ternary complex (Homo sapiens, UniProt P10275+Q92793)	8.00 to 9.00
Cn1c(=O)n(C)c2cc(N3CCCc4cc(-c5ccc(CCC6CCN(c7ccc(C(=O)N[C@H]8CC[C@H](Oc9ccc(C#N)c(Cl)c9)CC8)nn7)CC6)nc5)ncc43)ccc21	AR / CBP ternary complex (Homo sapiens, UniProt P10275+Q92793)	8.00 to 9.00
CC(=O)N1CCc2c(c(N3CCCc4cc(-c5cnn(C)c5)c(C(F)F)cc43)nn2C2CCN(C3CC4(CCC(Oc5ccc(C(=O)N[C@H]6CC[C@H](Oc7ccc(C#N)c(Cl)c7)CC6)nn5)CC4)C3)CC2)C1 (stereo partly drawn)	AR / CBP ternary complex (Homo sapiens, UniProt P10275+Q92793)	> 9.00
CC(=O)N1CCc2c(c(N3CCCc4cc(-c5cnn(C)c5)c(C(F)F)cc43)nn2C2CCN(C[C@H]3[C@H](C)CN(c4ccc(C(=O)N[C@H]5CC[C@H](Oc6ccc(C#N)c(Cl)c6C)CC5)nn4)C[C@@H]3C)CC2)C1	AR / CBP ternary complex (Homo sapiens, UniProt P10275+Q92793)	> 9.00
CC(=O)N1CCc2c(c(-c3cccc4cc(-c5cnn(C)c5)ncc34)nn2C2CCN(CC3CCN(c4ncc(C(=O)N[C@H]5CC[C@H](Oc6ccc(C#N)c(Cl)c6)CC5)cn4)CC3)CC2)C1	AR / CBP ternary complex (Homo sapiens, UniProt P10275+Q92793)	> 9.00

Recorded pEC50 (molecule "Cn1c(=O)sc2ccc(N3CCCc4cc(-c5ccc(CCC6CCN(c7ccc(C(=O)N[C@H]8CC[C@H](Oc9ccc(C#N)c(Cl)c9)CC8)nn7)CC6)nc5)c(C(F)F)cc43)cc21" ): 8.00 to 9.00

Recorded pEC50 (molecule CC(=O)N1CCc2c(c(N3CCCc4cc(-c5cnn(C)c5)c(C(F)F)cc43)nn2C2CC3(C2)CN(CC2CC4(C2)CN(c2ccc(C(=O)N[C@H]5CC[C@H](Oc6ccc(C#N)c(Cl)c6)CC5)nn2)C4)C3)C1 (stereo partly drawn) ): > 9.00

Recorded pEC50 (molecule "CC(=O)N1CCc2c(c(N3CCCc4cc(C#N)ncc43)nn2C2CCN(C(=O)C3CCN(c4ccc(C(=O)N[C@H]5CC[C@H](Oc6ccc(C#N)c(Cl)c6)CC5)nn4)CC3)CC2)C1" ): > 9.00

Recorded pEC50 (molecule "CC(=O)N1CCc2c(c(N3CCCc4cc(-c5cnn(C)c5)c(C(F)F)cc43)nn2[C@H]2CC[C@@]3(CCCN(C4CN(c5ccc(C(=O)N[C@H]6CC[C@H](Oc7ccc(C#N)c(Cl)c7)CC6)nn5)C4)C3)CC2)C1" ): > 9.00

---

target: AR / CBP ternary complex (Homo sapiens, UniProt P10275+Q92793)
protocol: Ternary complex formation assay (sandwich ELISA, AR capture, CBP antibody detection) in VCaP cell lysates
Type: cell-based
particulars: treated 1.5 hours, rabbit CBP or p300 antibody detection, average, read-out: Average Ternary Complex
test readout: EC50

Example entries and their recorded answers appear below.
compound	EC50
CC(=O)N1CCc2c(c(-c3cccc4ccncc34)nn2C2CCN(CC3CCN(c4ccc(C(=O)N[C@H]5CC[C@H](Oc6ccc(C#N)c(Cl)c6)CC5)nn4)CC3)CC2)C1	< 1 nM
CC(=O)N1CCc2c(c(N3CCCc4cc(-c5cnn(C)c5)c(C(F)F)cc43)nn2[C@@H]2CCN(CC3CCN(c4ccc(C(=O)N[C@H]5CC[C@H](Oc6ccc(C#N)c(Cl)c6)CC5)nn4)CC3)C[C@H]2F)C1	< 1 nM
CC(=O)N1CCc2c(c(N3CCCc4cc(C#N)ccc43)nn2C2CC3(C2)CN(C(=O)C2CC4(C2)CN(c2ccc(C(=O)N[C@H]5CC[C@H](Oc6ccc(C#N)c(Cl)c6)CC5)nn2)C4)C3)C1 (stereo partly drawn)	< 1 nM
CC(=O)N1CCc2c(c(N3CCCc4cc(-c5cnn(C)c5)c(C(F)F)cc43)nn2[C@H]2CC[C@H](OC3CN(c4ccc(C(=O)N[C@H]5CC[C@H](Oc6ccc(C#N)c(Cl)c6)CC5)nn4)C3)CC2)C1	< 1 nM

Recorded EC50 (compound "CC(=O)N1CCc2c(c(N3CCCc4cc(-c5cnn(C)c5)c(C(F)F)cc43)nn2C2CCN(CC3CCN(c4nnc(C(=O)N[C@H]5CC[C@H](Oc6ccc(C#N)c(Cl)c6)CC5)s4)CC3)CC2)C1" ): < 1 nM

Recorded EC50 (compound "Cn1cc(-c2cc3c(cc2C(F)F)N(c2cc(C4=CCN(CC5CCN(c6ccc(C(=O)N[C@H]7CC[C@H](Oc8ccc(C#N)c(Cl)c8)CC7)nn6)CC5)CC4)c4c(c2)n(C)c(=O)n4C)CCC3)cn1" ): < 1 nM

Recorded EC50 (compound "CC(=O)N1CCc2c(c(N3CCCc4cc(-c5cnn(C)c5)c(C(F)F)cc43)nn2C2CCN(C(=O)C3CCN(c4ccc(C(=O)N[C@H]5CC[C@H](Oc6ccc(C#N)c(Cl)c6)CC5)cn4)CC3)CC2)C1" ): 1 to 10 nM

Recorded EC50 (compound "CC(=O)N1CCc2c(c(N3CCCc4cc(-c5cscn5)c(C(F)F)cc43)nn2C2CCN([C@@H]3CCCN(c4ccc(C(=O)N[C@H]5CC[C@H](Oc6ccc(C#N)c(Cl)c6)CC5)nn4)C3)CC2)C1" ): 1 to 10 nM

Recorded EC50 (compound CC(=O)N1CCc2c(c(N3CCCc4cc(-c5cnn(C)c5)c(C)cc43)nn2C2CCN(CC3CCN(c4ccc(C(=O)N[C@H]5CC[C@H](Oc6ccc(C#N)c(Cl)c6C)CC5)nn4)CC3(C)C)CC2)C1 (stereo partly drawn) ): < 1 nM

---

System: VCaP cells
protocol: VCaP growth inhibition assay (CTG)
Format: cell-based
particulars: Homo sapiens, 216 h, 30 pM R1881, 9 days
IC50 values for the compounds below.

Example entries and their recorded answers appear below.
compound	IC50
CC(=O)N1CCc2c(c(N3CCCc4cc(C#N)ccc43)nn2C2CCC3(CC2)CCN(c2ccc(C(=O)N[C@H]4CC[C@H](Oc5ccc(C#N)c(Cl)c5)CC4)nn2)CC3)C1 [Compound 113]	0.1 to 1 nM
Cn1c(=O)sc2ccc(N3CCCc4cc(-c5ccc(CCC6CCN(c7ccc(C(=O)N[C@H]8CC[C@H](Oc9ccc(C#N)c(Cl)c9)CC8)nn7)CC6)nc5)c(C(F)F)cc43)cc21 [Compound 56]	> 100 nM

Could you now consider this next compound?
Recorded IC50 (compound CC(=O)N1CCc2c(c(-c3cccc4cc(-c5ccc(CCC6CC7(C6)CN(c6ccc(C(=O)N[C@H]8CC[C@H](Oc9ccc(C#N)c(Cl)c9)CC8)nn6)C7)nc5)ncc34)nn2C)C1 [Compound 51] ): 0.1 to 1 nM
